Would you kindly list log10 of EC50 for each of these compounds?
test system: XF498; test: Cytotoxicity against human XF498 cells; assay type: functional; details: read-out: ED50 (the source's name)
Recorded EC50 (log10, µg/mL)

CC1=C(O)[C@H](C/C(C)=C\CCC(C)/C=C\C=C(\C)CCCc2ccoc2)OC1=O (stereo partly drawn) has a reported log10 of EC50 of 0.95

The compound listed as CC1=C(O)/C(=C/[C@H](C)CCC/C(C)=C/CCc2coc(Cc3ccoc3)c2)OC1=O shows log10 of EC50 equal to 0.73

log10 of EC50 reading for CC1=C(O)[C@@H](C/C(C)=C\CC/C(C)=C/CC/C(C)=C/CCc2ccoc2)OC1=O : 1.31

Value of measured log10 of EC50 for the entry COc1cccc2c1C(=O)c1c(O)c3c(c(O)c1C2=O)C[C@@](O)(C(=O)CO)C[C@@H]3O[C@H]1C[C@H](N)[C@H](O)[C@H](C)O1 : -1.10

Recorded result, CC1=C(O)/C(=C/[C@H](C)CC/C=C(/C)CCCc2coc(Cc3ccoc3)c2)OC1=O , log10 of EC50: 0.57

Briefly, log10 of EC50 measured for CC1=C(O)/C(=C\[C@H](C)CC/C=C(/C)CCCc2coc(Cc3ccoc3)c2)OC1=O : 0.70

Quick note, log10 of EC50 for CC1=C(O)/C(=C\[C@H](C)CCC/C(C)=C/CCc2coc(Cc3ccoc3)c2)OC1=O landed at 0.81

Field log10 of EC50 (entry CC1=C(O)[C@@H](C/C(C)=C\CCC(C)/C=C/C=C(\C)CCCc2ccoc2)OC1=O (stereo partly drawn) ) reads 1.39
